tested on: NCI-H460 lung; experiment: NCI-60 one-dose screen, 48 h (100 = growth as untreated, 0 = no growth, -100 = all killed); conditions: 10 µM unless noted
The panel holds about 83,000 compounds, 20% with a hit somewhere; the sample as a whole holds those more often.
# growth per record follows
recorded endpoint: growth (%)

compound | experimental result
Cc1cc(C(C)(CC(C)C)c2ccc(O)c(C)c2)ccc1O | 104
CC1=CC(O)C2CC1C2(C)C (stereo unspecified) | 108
C[n+]1c(/C=C/c2ccc([N+](=O)[O-])cc2)ccc2ccccc21 | 106
Nc1nc(N)c2c(ccc3c2ccn3Cc2cccc([N+](=O)[O-])c2)n1 | -88.6
O=C1NC(=O)/C(=C/C=C/c2ccccc2)S1 | 10.6
N#CSCc1ccc(Cl)c(CSC#N)c1 | 16.3
